FYI, the data here is from patent US20260125356A1.

System: T. brucei bloodstream trypomastigotes
Experiment: T. brucei bloodstream trypomastigote dose response assay
Type: cell-based
Details: Trypanosoma brucei; bloodstream trypomastigotes, 48 hrs, CellTiter Blue; read-out: EC50 (T. brucei)/μM
property_measured: EC50 (µM)
Answers are plain numbers, in µM.

Asked: Which value of EC50 has been reported for CNC(=O)c1ccc(OCCN2CCOCC2)cc1NC(=O)c1ccc([N+](=O)[O-])s1 [Compound 52] in the records?
Given back: 0.78

* * *

Tested on: L. donovani promastigotes
Assay: L. donovani promastigote dose response assay (resazurin)
Type: cell-based
Details: Leishmania donovani, 72 h, read-out: EC50 (L. don)/μM
property_measured: EC50 (µM)
Answers are plain numbers, in µM.

Asked: For `CNC(=O)c1ccc(OCCCN2CCOCC2)cc1NC(=O)c1ccc([N+](=O)[O-])s1` , what is its reported EC50?
Given back: 0.044

* * *

Experiment: Kinetic solubility
Details: PBS, aqueous buffer, kinetic from dmso stock
Kindly state solubility at 2 h for each of the entries shown.
Give bare numbers, in µM.

structure_as_smiles=CNC(=O)c1ccc(OCCC2CCOCC2)cc1NC(=O)c1ccc([N+](=O)[O-])s1 value=3.7
structure_as_smiles=O=C(c1ccc([N+](=O)[O-])s1)N1CCCc2ccccc21 value=151
structure_as_smiles=CNC(=O)c1ccsc1N(C)C(=O)c1ccc([N+](=O)[O-])s1 value=190
structure_as_smiles=CNC(=O)c1ccc(OCCCN2CCOCC2)cc1NC(=O)c1ccc([N+](=O)[O-])s1 value=29
structure_as_smiles=CNC(=O)c1ccc(OCCN2CCOCC2)cc1NC(=O)c1ccc([N+](=O)[O-])s1 value=19.3
structure_as_smiles=CNC(=O)c1ccc(OCCOCCOC)cc1NC(=O)c1ccc([N+](=O)[O-])s1 value=2.27
structure_as_smiles=CNC(=O)c1ccsc1/N=C/c1ccc([N+](=O)[O-])s1 value=101

Asked: What value of solubility at 2 h has been reported for the following molecule? `NC(=O)c1ccccc1CNC(=O)c1ccc([N+](=O)[O-])s1`
Given back: 179

* * *

Test: Cytotoxicity against macrophages (resazurin)
Format: cell-based
Conditions: mouse, bone marrow-derived macrophages (BMDM), read-out: CC50 (macrophage)
Procedure: Mouse bone marrow-derived macrophages (BMDM) were plated in 96 well-plate at 1×10^5/well with medium RPMI+10% HIFCS. After 24 h, compound 53 and Pentostam were added at the indicated concentrations, and cells cultured for further 48 h with medium RPMI+5% HIFCS. […] Pentostam CC50 was from curve regression extrapolation. Means±SD (n=5); The selectivity index (SI) was calculated by dividing the half maximal cytotoxic concentration (CC50) by the half maximal effective concentration (EC50). […]
property_measured: CC50 at 48 h (µg/mL)
Give bare numbers, in µg/mL.

Asked: Which CC50 at 48 h reading was recorded for the molecule `CNC(=O)c1ccc(OCCCN2CCOCC2)cc1NC(=O)c1ccc([N+](=O)[O-])s1` ?
Given back: 16

* * *

Assay: Kinetic solubility
Conditions: FASSGF, fassgf or other biorelevant, kinetic from dmso stock
property_measured: solubility at 2 h

Answered cases to consult:
structure_as_smiles=CNC(=O)c1ccc(OCCCN2CCOCC2)cc1NC(=O)c1ccc([N+](=O)[O-])s1 value="> 8 mM"
structure_as_smiles=CNC(=O)c1ccc(OCCOCCOC)cc1NC(=O)c1ccc([N+](=O)[O-])s1 value="0.011 mM"

Switching to the query record.
Asked: What value of measured solubility at 2 h is listed for `CNC(=O)c1ccc(OCCN2CCOCC2)cc1NC(=O)c1ccc([N+](=O)[O-])s1` ?
Given back: > 8 mM

* * *

Assay: Kinetic solubility
Conditions: kinetic solubility in FESSIF, 2 hrs at RT
Protocol: All chemicals and solvents were sourced from commercial suppliers. Buffers were made up using purified water from a MilliQ® water purification system. Biorelevant buffers (FESSIF, FASSIF and FASSGF) were purchased from Biorelevant and made up according to manufacturer's instructions. […] λmax was determined for each compound from the UV-Vis absorption spectrum of a 200 LIM compound solution in buffer of interest using a Varian Cary® 100 UV-Vis Spectrophotometer. […]
Assign Solubility (FESSIF)/μM to each entry below.
Numbers only, in µM.

Please review the following examples before continuing.
molecule="CNC(=O)c1ccc(C)cc1NC(=O)c1ccc([N+](=O)[O-])s1 [Compound 44]" property_measured="Solubility (FESSIF)/μM" value=65
molecule="CNC(=O)c1ccc(OC)cc1NC(=O)c1ccc([N+](=O)[O-])s1 [Compound 43]" property_measured="Solubility (FESSIF)/μM" value=38
molecule="CNC(=O)c1ccccc1NC(=O)c1ccc([N+](=O)[O-])s1 [Compound 28]" property_measured="Solubility (FESSIF)/μM" value=143
molecule="CNC(=O)c1ccc(C(F)(F)F)cc1NC(=O)c1ccc([N+](=O)[O-])s1 [Compound 45]" property_measured="Solubility (FESSIF)/μM" value=250

Moving on to another molecule below.
Asked: What measured Solubility (FESSIF)/μM goes with CNC(=O)c1ccc(Br)cc1NC(=O)c1ccc([N+](=O)[O-])s1 [Compound 46] ?
Given back: 210
